Target sequence: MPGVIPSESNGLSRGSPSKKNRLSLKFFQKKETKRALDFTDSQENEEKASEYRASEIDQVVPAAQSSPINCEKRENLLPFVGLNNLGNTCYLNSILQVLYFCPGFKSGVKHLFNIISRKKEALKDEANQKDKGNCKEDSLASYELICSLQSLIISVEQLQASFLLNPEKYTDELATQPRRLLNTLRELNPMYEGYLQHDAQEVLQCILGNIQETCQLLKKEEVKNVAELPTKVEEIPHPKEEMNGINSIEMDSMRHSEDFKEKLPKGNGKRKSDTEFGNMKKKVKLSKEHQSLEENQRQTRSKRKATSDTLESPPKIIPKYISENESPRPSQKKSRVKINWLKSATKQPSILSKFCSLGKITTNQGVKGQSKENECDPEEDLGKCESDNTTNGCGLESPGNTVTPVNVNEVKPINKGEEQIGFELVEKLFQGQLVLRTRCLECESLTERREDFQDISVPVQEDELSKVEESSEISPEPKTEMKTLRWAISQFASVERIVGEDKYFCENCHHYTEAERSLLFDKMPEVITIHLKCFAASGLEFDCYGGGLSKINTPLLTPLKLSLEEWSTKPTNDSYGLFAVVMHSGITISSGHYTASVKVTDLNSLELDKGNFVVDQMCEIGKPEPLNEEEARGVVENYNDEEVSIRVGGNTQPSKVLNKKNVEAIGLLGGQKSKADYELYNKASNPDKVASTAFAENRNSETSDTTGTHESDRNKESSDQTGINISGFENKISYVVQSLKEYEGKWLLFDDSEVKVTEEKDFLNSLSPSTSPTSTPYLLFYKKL
pIC50: −log10 of the molar value.
Value type: pIC50

Molecule: [2H]C([2H])([2H])Oc1ncnc(C2CC2)c1-c1ncc2c3cn(C)nc3n(Cc3ccc(-c4nc(C(F)(F)F)cn4C(C)C)cc3)c2n1 [US20250368667, Compound 162]
pIC50: 8.26
//
Molecule: COc1ncnc(C2CC2)c1-c1ncc2c3ccc(C(C)C)nc3n(Cc3ccc4c(c3)CCCn3cc(C(F)(F)F)nc3-4)c2n1 [US20250368667, Compound 105]
pIC50: 8.29
